assay_text: Toxicity in mouse administered as single oral dose measured for 14 days
test_context: in vivo
experimental_readout: LD50 at 336 h (mg/kg)
Express the result in mg/kg but write the number alone.

line_notation	uom	LD50 at 336 h
O=[N+]([O-])c1ccc(-c2ncncc2Br)o1	mg/kg	300

Switching to the query record.
The molecule listed as O=[N+]([O-])c1ccc(-c2ncncc2-c2ccccc2)o1 has a reported LD50 at 336 h of 450

---

Tested on: Shigella flexneri
assay_text: Antibacterial activity against Shigella flexneri RCPM 1a8516 by two-fold serial dilution method
Type: functional
Reported MIC is given for each of the following compounds.

Some solved entries appear below for comparison.
line_notation	result
O=[N+]([O-])c1ccc(-c2ncncc2-c2ccccc2C(F)(F)F)o1	62.5 µg/mL
O=[N+]([O-])c1ccc(-c2ncncc2-c2ccccc2F)o1	> 250 µg/mL
O=[N+]([O-])c1ccc(-c2ncncc2-c2ccc(C(F)(F)F)cc2C(F)(F)F)o1	> 250 µg/mL
O=[N+]([O-])c1ccc(-c2ncncc2-c2cccc(F)c2)o1	> 250 µg/mL
CN[C@@H]1[C@H](O)[C@H](NC)[C@H]2O[C@@]3(O)C(=O)C[C@@H](C)O[C@H]3O[C@@H]2[C@H]1O	7.8 µg/mL

The value of MIC recorded for O=[N+]([O-])c1ccc(-c2ncncc2-c2ccc(F)cc2F)o1 when tested on Shigella flexneri reads > 250 µg/mL

The value of MIC recorded for O=[N+]([O-])c1ccc(-c2ncncc2-c2ccccc2)o1 when tested on Shigella flexneri reads > 250 µg/mL

The value of MIC recorded for O=[N+]([O-])c1ccc(-c2ncncc2Br)o1 when tested on Shigella flexneri reads 7.8 µg/mL

---

System: Neisseria gonorrhoeae
assay_text: Antibacterial activity against gonorrhea patient derived azithromycin resistant-Neisseria gonorrhoeae by two-fold serial dilution method
Assay type: functional
Reported MIC is given for each of the following molecules.

The value of MIC recorded for O=[N+]([O-])c1ccc(-c2ncncc2-c2ccc(C(F)(F)F)cc2C(F)(F)F)o1 when tested on Neisseria gonorrhoeae reads 1000 µg/mL

The value of MIC recorded for O=[N+]([O-])c1ccc(-c2ncncc2-c2ccccc2F)o1 when tested on Neisseria gonorrhoeae reads 7.8 µg/mL

The value of MIC recorded for O=[N+]([O-])c1ccc(-c2ncncc2-c2ccc(F)cc2F)o1 when tested on Neisseria gonorrhoeae reads 31.2 µg/mL

The value of MIC recorded for O=[N+]([O-])c1ccc(-c2ncncc2-c2ccc(F)cc2)o1 when tested on Neisseria gonorrhoeae reads 31.2 µg/mL

The value of MIC recorded for O=[N+]([O-])c1ccc(-c2ncncc2-c2ccccc2)o1 when tested on Neisseria gonorrhoeae reads 7.8 µg/mL

The value of MIC recorded for O=[N+]([O-])c1ccc(-c2ncncc2-c2ccccc2C(F)(F)F)o1 when tested on Neisseria gonorrhoeae reads 15.6 µg/mL

The value of MIC recorded for CN[C@@H]1[C@H](O)[C@H](NC)[C@H]2O[C@@]3(O)C(=O)C[C@@H](C)O[C@H]3O[C@@H]2[C@H]1O [SPECTINOMYCIN] when tested on Neisseria gonorrhoeae reads 15.6 µg/mL

The value of MIC recorded for O=[N+]([O-])c1ccc(-c2ncncc2Br)o1 when tested on Neisseria gonorrhoeae reads 3.9 µg/mL

The value of MIC recorded for O=[N+]([O-])c1ccc(-c2ncncc2-c2cccc(F)c2)o1 when tested on Neisseria gonorrhoeae reads 15.6 µg/mL

Source listed as ChEMBL document CHEMBL4033695.
